# appliedConditions: in water, 308.15 K
observedProperty: solubility (mole fraction)
Enter the number alone.

Input line: Fill in the blank: the reported solubility (mole fraction) of COc1c(O)cc2c(c1O)[C@@H]1O[C@H](CO)[C@@H](O)[C@H](O)[C@H]1OC2=O is ____.
Output line: 0.000123

---

# appliedConditions: in DMSO, 298.15 K
observedProperty: solubility (mole fraction)
I only need the number, thanks.

Input line: Report solubility (mole fraction) for COc1c(O)cc2c(c1O)[C@@H]1O[C@H](CO)[C@@H](O)[C@H](O)[C@H]1OC2=O please.
Output line: 0.0168

---

# appliedConditions: in water, 313.15 K
observedProperty: solubility (mole fraction)

Input line: Give its solubility (mole fraction) value. Item: COc1c(O)cc2c(c1O)[C@@H]1O[C@H](CO)[C@@H](O)[C@H](O)[C@H]1OC2=O
Output line: 0.000151
